Reference source: patent US6727390B2

method: Liquid-liquid partition coefficients between FC-72 and organic solvents (partitioning followed by HPLC analysis)
Assay type: physicochemical
measurementContext: room temperature; 50/50 (v/v) FC-72/methanol
measurementName: Partition coefficient FC-72/methanol (P = cfluorous phase/corganic phase)

Use the examples below as a reference point.
FC(F)(F)C(F)(F)C(F)(F)C(Cc1ccc(P(c2ccc(CC(C(F)(F)F)(C(F)(F)F)C(F)(F)C(F)(F)C(F)(F)F)cc2)c2ccc(CC(C(F)(F)F)(C(F)(F)F)C(F)(F)C(F)(F)C(F)(F)F)cc2)cc1)(C(F)(F)F)C(F)(F)F : 18.48
FC(F)(F)C(F)(F)C(F)(F)C(F)(F)C(F)(F)C(F)(F)CCc1ccc(P(c2ccccc2)c2ccc(CCC(F)(F)C(F)(F)C(F)(F)C(F)(F)C(F)(F)C(F)(F)F)cc2)cc1 : 1.86
FC(F)(F)C(F)(F)C(F)(F)C(F)(F)C(F)(F)C(F)(F)CCc1ccc(P(c2ccc(CCC(F)(F)C(F)(F)C(F)(F)C(F)(F)C(F)(F)C(F)(F)F)cc2)c2ccc(CCC(F)(F)C(F)(F)C(F)(F)C(F)(F)C(F)(F)C(F)(F)F)cc2)cc1 : 30.03
FC(F)(F)C(F)(F)C(F)(F)C(Cc1ccc(P(c2ccccc2)c2ccccc2)cc1)(C(F)(F)F)C(F)(F)F : 0.09
FC(F)(F)C(F)(F)C(F)(F)C(F)(F)C(F)(F)C(F)(F)CCc1ccc(P(c2ccccc2)c2ccccc2)cc1 : 0.12

Would you kindly look at the next entry?
Ask: Quick one: Partition coefficient FC-72/methanol (P = cfluorous phase/corganic phase) for FC(F)(F)C(F)(F)C(F)(F)C(Cc1ccc(P(c2ccccc2)c2ccc(CC(C(F)(F)F)(C(F)(F)F)C(F)(F)C(F)(F)C(F)(F)F)cc2)cc1)(C(F)(F)F)C(F)(F)F ?
Reply: 3.34

====

method: Liquid-liquid partition coefficients between FC-72 and organic solvents (partitioning followed by HPLC analysis)
Format: physicochemical
measurementContext: room temperature; 50/50 (v/v) FC-72/toluene
Please use Condition met whenever Partition coefficient FC-72/toluene (P = cfluorous phase/corganic phase) is not below 0.1, and Condition not met whenever it is.

FC(F)(F)C(F)(F)C(F)(F)C(Cc1ccc(P(c2ccccc2)c2ccccc2)cc1)(C(F)(F)F)C(F)(F)F : Condition met
FC(F)(F)C(F)(F)C(F)(F)C(F)(F)C(F)(F)C(F)(F)CCc1ccc(P(c2ccccc2)c2ccc(CCC(F)(F)C(F)(F)C(F)(F)C(F)(F)C(F)(F)C(F)(F)F)cc2)cc1 : Condition not met
FC(F)(F)C(F)(F)C(F)(F)C(Cc1ccc(P(c2ccc(CC(C(F)(F)F)(C(F)(F)F)C(F)(F)C(F)(F)C(F)(F)F)cc2)c2ccc(CC(C(F)(F)F)(C(F)(F)F)C(F)(F)C(F)(F)C(F)(F)F)cc2)cc1)(C(F)(F)F)C(F)(F)F : Condition met
FC(F)(F)C(F)(F)C(F)(F)C(F)(F)C(F)(F)C(F)(F)CCc1ccc(P(c2ccc(CCC(F)(F)C(F)(F)C(F)(F)C(F)(F)C(F)(F)C(F)(F)F)cc2)c2ccc(CCC(F)(F)C(F)(F)C(F)(F)C(F)(F)C(F)(F)C(F)(F)F)cc2)cc1 : Condition met
FC(F)(F)C(F)(F)C(F)(F)C(Cc1ccc(P(c2ccccc2)c2ccc(CC(C(F)(F)F)(C(F)(F)F)C(F)(F)C(F)(F)C(F)(F)F)cc2)cc1)(C(F)(F)F)C(F)(F)F : Condition met

We next turn to a different compound, shown below.
Ask: Is Partition coefficient FC-72/toluene (P = cfluorous phase/corganic phase) for FC(F)(F)C(F)(F)C(F)(F)C(F)(F)C(F)(F)C(F)(F)CCc1ccc(P(c2ccccc2)c2ccccc2)cc1 at or above 0.1?
Reply: Condition not met
